Measured pIC50 on UniProtKB P10828 follows.
Sequence (P10828 whole entry): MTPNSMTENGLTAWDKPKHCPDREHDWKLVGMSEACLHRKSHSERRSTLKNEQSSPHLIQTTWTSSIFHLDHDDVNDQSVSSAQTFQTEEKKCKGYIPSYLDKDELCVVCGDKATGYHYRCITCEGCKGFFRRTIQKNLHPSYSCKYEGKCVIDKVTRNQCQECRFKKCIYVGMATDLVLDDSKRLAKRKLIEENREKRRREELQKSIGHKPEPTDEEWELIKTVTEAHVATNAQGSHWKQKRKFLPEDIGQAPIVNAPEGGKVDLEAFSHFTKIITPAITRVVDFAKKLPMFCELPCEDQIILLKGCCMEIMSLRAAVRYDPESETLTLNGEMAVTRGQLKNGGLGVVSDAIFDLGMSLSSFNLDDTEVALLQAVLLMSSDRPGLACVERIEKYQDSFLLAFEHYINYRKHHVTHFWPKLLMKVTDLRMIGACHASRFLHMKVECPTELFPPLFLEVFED
Here pIC50 is given on a logarithmic scale as minus log10 of the concentration in mol/L.

Ask: Requested read-out pIC50, target or system UniProtKB P10828, entry CC(C)c1cc(Oc2c(Cl)cc3[nH]c(C(=O)O)cc(=O)c3c2Cl)ccc1O
Reply: 6.06

Ask: API: value(readout= pIC50, system= UniProtKB P10828, query= CC(C)c1cc(Oc2c(Br)cc3c(c2Br)CC(C(=O)O)C3)ccc1O (stereo unspecified) )
Reply: 8.07

Ask: Query the reported pIC50 for UniProtKB P10828; item: Cc1cc2nc(C(=O)O)ccc2c(C)c1Oc1ccc(O)c(C(C)C)c1
Reply: 7.82

Ask: Checklist item: pIC50 tested on UniProtKB P10828, entry CC(C)c1cc(Oc2c(Br)cc3[nH]c(C(=O)O)cc3c2Br)ccc1O , value?
Reply: 9.55

Ask: API: value(readout= pIC50, system= UniProtKB P10828, query= Cc1cc2[nH]c(C(=O)O)cc(=O)c2c(C)c1Oc1ccc(O)c(C(C)C)c1 )
Reply: 6.62

Ask: GET /values?readout=pIC50&system=UniProtKB P10828&item= CC(C)c1cc(Oc2c(Br)cc3nc(C(=O)O)cc(O)c3c2Br)ccc1O
Reply: 7.29
